Test: qHTS assay to identify small molecule agonists of the RXR signaling pathway - cell viability counter screen (AID 1159529); note: nearly all actives have a fitted effect of over 50% in size
Details: RXR-alpha-bla HEK293T viability, CellTiter-Glo, 16 h; series mostly up to 76.8 µM
Records with an inconclusive call do not appear. The source made the active and inactive calls. Calls come from the whole dose curve; as a rule, active = well fitted cell-killing curve with a large enough effect in the repeat runs; inconclusive = weak or mixed curves, or effect the other way; inactive = no such curve, though single readings can be large or run the other way.
Possible outcomes: Y (active), N (inactive)

CC(C)=CCCC(C)O (centres undefined); N
CCc1cccc(CC)c1N(COC)C(=O)CS(=O)(=O)O; N
CC(=O)O[C@@H]1C[C@@H]2CC[C@@]1(C)C2(C)C; N
CC(C)(C)C1=CC(=O)C=C(C(C)(C)C)C1=O; N
c1cc[nH]c1; N
CC(=O)c1ccccc1N; N
CCCCOCC; N
NC(=O)c1ccccc1N; N
CCOCOCC; N
Clc1ccc(C(Cn2ccnc2)OCc2c(Cl)cccc2Cl)c(Cl)c1 (centres undefined); Y
CCCC(=O)OCC(COC(=O)CCC)OC(=O)CCC; N
O=C(O)Cc1ccc(OCCNC[C@H](O)c2ccccc2)cc1; N
CCC1CCCCC1; N
O[C@@H](c1cc(C(F)(F)F)nc2c(C(F)(F)F)cccc12)[C@H]1CCCCN1; Y

====

Assay: qHTS assay to identify small molecule agonists of H2AX - cell viability counter screen (AID 1224847); note: nearly all actives have a fitted effect of over 30% in size
Settings: CHO-K1 viability, CellTiter-Glo luminescence, 3 h; series mostly up to 154 µM
Inconclusive results are not listed. The source made the active and inactive calls. Calls follow the shape of the full dose curve.
Possible outcomes: active, inactive

c1cc[nH]c1; inactive
C/C=C/c1ccc(OC)c(OC)c1; inactive
CO[C@H]1C=CO[C@@]2(C)Oc3c(C)c(O)c4c(O)c(cc(O)c4c3C2=O)NC(=O)/C(C)=C\C=C/[C@H](C)[C@H](O)[C@@H](C)[C@@H](O)[C@@H](C)[C@H](OC(C)=O)[C@@H]1C; inactive
CCCCCCOc1ccc(O)cc1; active
CCOCN(C(=O)CS(=O)(=O)O)c1c(C)cccc1CC; inactive
CC(COC(=O)c1ccccc1)OC(=O)c1ccccc1 (configuration not stated); inactive
CCCCCCCCCCCCCOP(=O)(O)O; inactive
NC(=O)c1nc(-c2cccc(-c3cc(F)ccc3OCC(F)(F)C(F)(F)F)c2)n[nH]1; active
CC(CN(C)C)CN1c2ccccc2CCc2ccccc21 (configuration not stated); inactive
CCCC(O)C(O)CO (configuration not stated); inactive
CCCCCCCCCC(=O)N(C)C; inactive
CN1[C@@H]2CC[C@@H]1CC(OC(=O)C(CO)c1ccccc1)C2 (some centres not stated); inactive

====

Biological target: Estrogen receptor (Homo sapiens) (UniProt P03372)
Sequence (P03372 whole entry, looked up): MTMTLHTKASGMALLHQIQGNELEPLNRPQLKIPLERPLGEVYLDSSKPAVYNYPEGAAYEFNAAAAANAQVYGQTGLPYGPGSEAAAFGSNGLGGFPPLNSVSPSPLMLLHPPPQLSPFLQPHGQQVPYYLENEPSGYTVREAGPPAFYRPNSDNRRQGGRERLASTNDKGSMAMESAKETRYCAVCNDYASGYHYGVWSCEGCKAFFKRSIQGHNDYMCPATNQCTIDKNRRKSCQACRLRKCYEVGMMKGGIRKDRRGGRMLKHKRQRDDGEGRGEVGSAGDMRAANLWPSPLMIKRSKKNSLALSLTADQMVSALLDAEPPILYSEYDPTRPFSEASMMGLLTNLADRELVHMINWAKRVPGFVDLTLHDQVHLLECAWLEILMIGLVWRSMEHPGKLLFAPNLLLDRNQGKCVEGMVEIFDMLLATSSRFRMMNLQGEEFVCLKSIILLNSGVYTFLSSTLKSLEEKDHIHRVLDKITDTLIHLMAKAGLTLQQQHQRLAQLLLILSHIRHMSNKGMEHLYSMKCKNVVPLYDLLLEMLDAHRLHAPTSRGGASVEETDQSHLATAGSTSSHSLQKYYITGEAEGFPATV
Assay: qHTS assay to identify small molecule antagonists of the estrogen receptor alpha (ER-alpha) signaling pathway using the BG1 cell line in the presence of 0.1 nM 17-beta-estradiol (AID 1259244); note: nearly all actives have a fitted effect of over 50% in size
Details: VM7Luc4E2 (BG1) ERE-luciferase, antagonist mode, 0.1 nM E2, 22 h; series mostly up to 92.4 µM
Inconclusive results are not listed. The source made the active and inactive calls. Calls follow the shape of the dose curve; as a rule, active = well fitted inhibition curve with a large enough effect in the repeat runs; inconclusive = weak or mixed curves; inactive = no such curve, though single readings can be large or run the other way.
Labels: 1.0 (active), 0.0 (inactive)

CC(C)=CCCC(C)O (stereo unspecified); 0.0
CCCC(CC)CCCCCCCN (stereo unspecified); 0.0
CCCCCCOc1ccc(O)cc1; 0.0
CCCCCCCCCCCCCCNCCO; 0.0
CC1=CCC(=O)O1; 0.0
Oc1cc2ccccc2cc1O; 0.0
C[Si](C)O[Si](C)C; 0.0
CS(C)(=O)=O; 0.0
CNC(=O)c1cc(Oc2ccc(NC(=O)Nc3ccc(Cl)c(C(F)(F)F)c3)cc2)ccn1; 1.0
CCc1c(Br)c(Br)c(Br)c(Br)c1Br; 0.0
CN(C)CCN1CCOCC1; 0.0
Cc1cccc(C)n1; 0.0
CC(=O)OC1CCCCC1; 0.0
Cc1cccc(N(C)C)c1; 0.0
O=C1OC(=O)c2cccc3cccc1c23; 0.0
COc1ccc2sc(C(=O)Nc3nnn[nH]3)c(OC(C)C)c2c1; 1.0
CC1CCCCC1; 0.0
COc1nccnc1CC(C)C; 0.0
Cc1cc(=O)[nH]c(=O)[nH]1; 0.0
CCN(CC)CCCN(c1ccccc1)C1Cc2ccccc2C1; 0.0
Cc1cncc(C)c1; 0.0
CCCCCCS; 0.0
O=S(=O)(O)CCCN1CCOCC1; 0.0
CCCCCCCC(C)=O; 0.0
CCc1ccc(O)c(C(C)(C)C)c1; 0.0
CC(C)=CCCC(C)CCOC(=O)C(C)C (stereo unspecified); 0.0
CCc1ccc(C)nc1; 0.0
Cn1cccc1; 0.0
CC[N+](CC)(CC)Cc1ccccc1; 0.0
NC(=O)C(=O)N/N=C/c1ccc([N+](=O)[O-])o1; 0.0
O=C(O)c1cccc(Cl)n1; 0.0
O=C1c2c(O)ccc([N+](=O)[O-])c2C(=O)c2c([N+](=O)[O-])ccc(O)c21; 1.0
O=Nc1ccc(NO)cc1; 1.0
Clc1ccc(C(Cn2ccnc2)OCc2c(Cl)cccc2Cl)c(Cl)c1 (stereo unspecified); 0.0
CCOCN(C(=O)CS(=O)(=O)O)c1c(C)cccc1CC; 0.0
CC(=O)c1ccccc1N; 0.0
CCc1cccc(CC)c1NC(=O)C(=O)O; 0.0
C=CC(C)(CCC=C(C)C)OC(=O)/C=C/c1ccccc1 (stereo unspecified); 0.0
CC(C)=C1CC[C@@H](C)CC1=O; 0.0
CCN(CC)CCNc1ccc(CO)c2sc3ccccc3c(=O)c12; 0.0
Cc1ccc(CCn2c3c(c4cc(Cl)ccc42)CN(C)CC3)cn1; 0.0
C=C[C@](C)(O)CC[C@@H]1[C@@]2(C)CCCC(C)(C)[C@@H]2CC[C@@]1(C)O; 1.0
CC(C(O)c1ccccc1)N(C)CCOC(c1ccccc1)c1ccccc1 (stereo unspecified); 0.0
COc1ccccc1C=O; 0.0
CN1CCN(C2Cc3ccccc3Sc3ccc(Cl)cc32)CC1 (stereo unspecified); 0.0
CCC(C)C(=O)OC (stereo unspecified); 0.0
CCCCOc1ccc(C(=O)CCN2CCCCC2)cc1; 0.0
COc1cccc(CCc2ccccc2OCC(CN(C)C)OC(=O)CCC(=O)O)c1 (stereo unspecified); 0.0
CCCCCCCCCCCCCCCC; 0.0
CC=O; 1.0
CCN(CC)CCSC(=O)C(c1ccccc1)c1ccccc1; 0.0
CO[C@H]1C=CO[C@@]2(C)Oc3c(C)c(O)c4c(O)c(cc(O)c4c3C2=O)NC(=O)/C(C)=C\C=C/[C@H](C)[C@H](O)[C@@H](C)[C@@H](O)[C@@H](C)[C@H](OC(C)=O)[C@@H]1C; 1.0
CC(C)(C)c1n[nH]c(=O)n(N)c1=O; 0.0
ClC/C=C\CCl; 0.0
CCOC(=O)COc1ccc(C)cc1; 0.0
CC1(C)C(=O)N(CO)C(=O)N1CO; 0.0
CC(C)C(=O)OCc1ccccc1; 0.0
CCOB(OCC)OCC; 0.0
CCCCCCCCCCCCCOP(=O)(O)O; 0.0
Cn1cnc2ncnc(N)c21; 0.0
Clc1nc2ccccc2s1; 0.0

====

Biological target: Cytochrome P450 2D6 (Homo sapiens) (UniProt P10635)
Sequence (P10635 whole entry, looked up): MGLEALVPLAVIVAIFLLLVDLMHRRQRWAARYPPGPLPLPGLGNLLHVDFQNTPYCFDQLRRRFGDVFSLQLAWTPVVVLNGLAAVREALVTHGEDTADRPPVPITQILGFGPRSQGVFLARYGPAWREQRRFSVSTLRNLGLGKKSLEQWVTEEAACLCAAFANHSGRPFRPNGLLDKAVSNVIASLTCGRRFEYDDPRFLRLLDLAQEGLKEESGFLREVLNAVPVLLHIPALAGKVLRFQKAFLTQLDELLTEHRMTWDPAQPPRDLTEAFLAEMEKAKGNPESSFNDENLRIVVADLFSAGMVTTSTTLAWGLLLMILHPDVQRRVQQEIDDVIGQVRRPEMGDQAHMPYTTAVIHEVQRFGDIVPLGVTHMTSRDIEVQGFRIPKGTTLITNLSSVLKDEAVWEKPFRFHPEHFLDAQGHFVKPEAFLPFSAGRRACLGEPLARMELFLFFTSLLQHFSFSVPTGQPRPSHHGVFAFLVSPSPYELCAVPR
Assay: Cytochrome P450 Family 2 Subfamily D Member 6 (CYP2D6) small molecule antagonists: luciferase reporter qHTS assay (AID 1671196); note: % is set by controls: 0 for no effect and ±100 for the full control effect; nearly all actives have a fitted effect of over 50% in size
Details: P450-Glo CYP2D6 enzyme assay, luciferin luminescence, 1 h; series mostly up to 115 µM
Results filed as inconclusive are left out. The source made the active and inactive calls. Calls come from the whole dose curve; as a rule, active = well fitted inhibition curve with a large enough effect in the repeat runs; inconclusive = weak or mixed curves; inactive = no such curve, though single readings can be large or run the other way.
Collected activity change, negative = inhibition values appear next to each entry.
quantity-measured: activity change, negative = inhibition

CCCCCCCCCCCCCCCCCO; -4.81% [at 23.6 µM] (inactive)
O=S(=O)(O)c1cc(S(=O)(=O)O)c2ccc3c(S(=O)(=O)O)cc(S(=O)(=O)O)c4ccc1c2c43; -11.8% [at 23.6 µM] (inactive)
N[C@@H](CSSC[C@H](N)C(=O)O)C(=O)O; -4.15% [at 0.435 µM] (inactive)
S=C(SSSSSSC(=S)N1CCCCC1)N1CCCCC1; -19.3% [at 23.6 µM] (inactive)

====

Test: qHTS assay to identify small molecule agonists of the AP-1 signaling pathway - cell viability counter screen (AID 1159525); note: nearly all actives have a fitted effect of over 55% in size; note: potency is the fitted concentration of half-maximal effect
Conditions: ME-180 (cervical carcinoma) AP-1-bla cells viability, ATP luminescence, 5 h; series mostly up to 76.8 µM
Records with an inconclusive call do not appear. Calls of active or inactive are those of the source. The call rests on the fitted dose curve.
quantity-measured: Potency

Clc1cccnc1; inactive
CN(C)CCCN1c2ccccc2Sc2ccc(C(F)(F)F)cc21; inactive
O=C(Oc1ccccc1)c1cccc(C(=O)Oc2ccccc2)c1; inactive
CCCCCCCCC(C)=O; inactive
Cc1cc(=O)[nH]c(=O)[nH]1; inactive
CCN(CC)c1cccc(C)c1; inactive
CC1(C)C(=O)N(Br)C(=O)N1Br; inactive
C=C(c1ccc(C(=O)O)cc1)c1cc2c(cc1C)C(C)(C)CCC2(C)C; 30.9 µM (active)
O=c1cccc[nH]1; inactive
CCc1c(Br)c(Br)c(Br)c(Br)c1Br; inactive
CC1=CP(=O)(c2ccccc2)CC1 (stereo not drawn); inactive
CCOC(OCC)C(=O)c1ccccc1; inactive
CNC(=O)c1cc(Oc2ccc(NC(=O)Nc3ccc(Cl)c(C(F)(F)F)c3)cc2)ccn1; inactive
COc1cccc(OC)c1O; inactive
CCCC(CC)CCCCCCCN (stereo not drawn); inactive
Nc1ccc2cc3ccc(N)cc3nc2c1; inactive
Nc1cc(Cl)c([N+](=O)[O-])cc1O; inactive
Nc1ncnc2c1ncn2[C@@H]1O[C@H](COP(=O)(O)O)[C@@H](O)[C@H]1O; inactive
CCc1cccc(CC)c1N(COC)C(=O)CS(=O)(=O)O; inactive
CCCC(C)CCC(C)=O (stereo not drawn); inactive
Cc1cncc(C)c1; inactive
OCCCc1cccnc1; inactive
CCOC(=O)COc1ccc(C)cc1; inactive
C=CC(C)(CCC=C(C)C)OC(=O)/C=C/c1ccccc1 (stereo not drawn); inactive
Cc1cnccn1; inactive
COc1ccc(C#N)cc1; inactive
CCC(C)c1ccccc1 (stereo not drawn); inactive
O=C(O)CCCCCCC(=O)O; inactive
Oc1c(Br)cc(Br)c2cccnc12; inactive
CN(C)CCCN1c2ccccc2CCc2ccccc21; inactive
NCCCC(O)(P(=O)(O)O)P(=O)(O)O; inactive
CC(C)N=C(N)/N=C(\N)Nc1ccc(Cl)cc1; inactive
CNC(=S)NN; inactive
CCCCCCCC(OC)OC; inactive
C=CCCCCCCC=C; inactive
O=C(O)CCn1c2c(c3ccccc31)C[C@H](NS(=O)(=O)c1ccc(F)cc1)CC2; inactive
Cc1cc2c(C(C)C)c(O)c(O)c(C=O)c2c(O)c1-c1c(C)cc2c(C(C)C)c(O)c(O)c(C=O)c2c1O; inactive
c1ccc2c(c1)CCC2; inactive
CCCCCCCCCCCCCOP(=O)(O)O; inactive
CCC1CCCCC1; inactive
O[C@@H](c1cc(C(F)(F)F)nc2c(C(F)(F)F)cccc12)[C@H]1CCCCN1; inactive
CCc1ccc(C)nc1; inactive
COC(=O)[C@]1(C)CCC[C@@]2(C)[C@H]1CC=C1C=C(C(C)C)CC[C@@H]12; inactive
C[Si](C)O[Si](C)C; inactive
ClC/C=C\CCl; inactive
CN1CN(C)CN(C)C1; inactive
CNCC[C@H](Oc1cccc2ccccc12)c1cccs1; inactive
CCCCOc1ccc(C(=O)CCN2CCCCC2)cc1; inactive
CCCCOC(=O)C(C)CC (stereo not drawn); inactive
CCOC(/C=C(\C)CCC=C(C)C)OCC; inactive
C/C=C/c1ccc(OC)c(OC)c1; inactive
Cc1nc(Nc2ncc(C(=O)Nc3c(C)cccc3Cl)s2)cc(N2CCN(CCO)CC2)n1; inactive
Cc1cc(Nc2ccc(O)cc2)ccc1N; inactive
COCC(=O)O[C@]1(CCN(C)CCCc2nc3ccccc3[nH]2)CCc2cc(F)ccc2[C@@H]1C(C)C; inactive
Clc1nc2ccccc2s1; inactive
CC(C)C(=O)OCc1ccccc1; inactive
C=C[C@](C)(O)CC[C@@H]1[C@@]2(C)CCCC(C)(C)[C@@H]2CC[C@@]1(C)O; 24.5 µM (active)
O=C1OC(=O)c2ccc3c4c(ccc1c24)C(=O)OC3=O; inactive
